# ASSAY_TARGET: T1, cow serum albumin (cow, UniProt P02769 25-607)
# T1 construct: Bought protein, immobilized on a CM5 chip by amine coupling; also called Cow SA
# EXPERIMENTAL_PROTOCOL: SPR (Biacore 8K), albumin immobilized on CM5 chip, 25 C, steady state
OUTCOME_MEASURE: pKd
By convention, pKd is the negative base-10 log of a molar concentration.

// worked examples, pKd included
BINDER	pKd
RLN Analog 12 (other, Single-chain fusion: VHH - (G4Q)5 L1 - RLN2 B chain (desB1) - L2 of thirteen residues - RLN2 A chain (desA1-4)) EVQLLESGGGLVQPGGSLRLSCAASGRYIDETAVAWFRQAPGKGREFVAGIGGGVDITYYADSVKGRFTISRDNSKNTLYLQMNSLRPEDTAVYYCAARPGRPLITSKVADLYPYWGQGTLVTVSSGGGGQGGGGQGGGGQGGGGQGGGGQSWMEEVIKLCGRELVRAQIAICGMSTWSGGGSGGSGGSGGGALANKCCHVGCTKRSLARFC	7.52
RLN Analog 14 (other, Single-chain fusion: VHH - (PGPQ)8 L1 - RLN2 A chain (desA1-4) - L2 - RLN2 B chain (desB1)) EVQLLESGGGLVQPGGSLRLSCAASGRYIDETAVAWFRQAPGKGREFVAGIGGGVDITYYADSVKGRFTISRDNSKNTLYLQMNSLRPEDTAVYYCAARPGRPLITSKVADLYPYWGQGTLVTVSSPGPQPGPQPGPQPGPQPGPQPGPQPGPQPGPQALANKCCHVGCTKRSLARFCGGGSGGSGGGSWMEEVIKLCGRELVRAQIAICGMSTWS	7.47
RLN Analog 8 (other, Single-chain fusion: VHH - (PGPQ)8 L1 - RLN2 B chain (desB1) - L2 - RLN2 A chain) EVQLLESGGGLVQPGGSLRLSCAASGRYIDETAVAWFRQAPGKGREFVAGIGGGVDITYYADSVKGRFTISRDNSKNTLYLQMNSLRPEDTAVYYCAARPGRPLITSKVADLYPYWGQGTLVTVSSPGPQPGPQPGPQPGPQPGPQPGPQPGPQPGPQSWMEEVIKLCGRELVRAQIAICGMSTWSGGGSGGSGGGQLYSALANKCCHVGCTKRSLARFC	7.68
RLN Analog 10 (other, Single-chain fusion: RLN2 B chain (desB1) - L2 - RLN2 A chain - (PGPQ)8 L1 - VHH (C-terminal)) SWMEEVIKLCGRELVRAQIAICGMSTWSGGGSGGSGGGQLYSALANKCCHVGCTKRSLARFCPGPQPGPQPGPQPGPQPGPQPGPQPGPQPGPQEVQLLESGGGLVQPGGSLRLSCAASGRYIDETAVAWFRQAPGKGREFVAGIGGGVDITYYADSVKGRFTISRDNSKNTLYLQMNSLRPEDTAVYYCAARPGRPLITSKVADLYPYWGQGTLVTVSSPP	7.00
RLN Analog 5 (other, Single-chain fusion: RLN2 B chain (desB1) - L2 - RLN2 A chain - (G4Q)5 L1 - VHH (C-terminal)) SWMEEVIKLCGRELVRAQIAICGMSTWSGGGSGGSGGGQLYSALANKCCHVGCTKRSLARFCGGGGQGGGGQGGGGQGGGGQGGGGQEVQLLESGGGLVQPGGSLRLSCAASGRYIDETAVAWFRQAPGKEREFVAGIGGGVDITYYADSVKGRFTISRDNSKNTLYLQMNSLRPEDTAVYYCAARPGRPLITSKVADLYPYWGQGTLVTVSSPP	6.92

Attention now turns to another entry.
Request: Identify pKd associated with the binder RLN Analog 11 (other, Single-chain fusion: VHH - (G4Q)5 L1 - RLN2 B chain (desB1) - L2 of thirteen residues - RLN2 A chain (desA1-4)) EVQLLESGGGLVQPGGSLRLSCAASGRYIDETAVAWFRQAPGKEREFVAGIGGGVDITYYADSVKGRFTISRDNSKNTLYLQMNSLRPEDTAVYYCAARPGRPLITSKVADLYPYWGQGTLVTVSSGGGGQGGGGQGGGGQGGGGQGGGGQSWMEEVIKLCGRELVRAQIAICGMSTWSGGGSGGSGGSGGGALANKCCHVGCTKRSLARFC
Result: 7.57
